Test: Clearance in Sprague-Dawley rat at 2 mg/kg, iv and 10 mg/kg, po
Assay type: ADME, organism-based
Conditions: in vivo
This section presents molecules with their documented clearance values.
Quick reminder: number only, in mL/min/kg, skip the unit.

Illustrative cases are given below, each with its answer.
>>> value("CN1CCOCCN(C)S(=O)(=O)NC(=O)c2ccc3c(C4CCCCC4)c(n(C)c3c2)-c2ccccc2OCC1=O")
128
>>> value("CN1CCOCCN(C)S(=O)(=O)NC(=O)c2ccc3c(C4CCCCC4)c4n(c3c2)CC(=Cc2cc(F)ccc2-4)C1=O")
61.7
>>> value("COc1ccc2c(c1)C=C1Cn3c-2c(C2CCCCC2)c2ccc(cc23)C(=O)NS(=O)(=O)N(C)CCN2CCN(CC2)C1=O")
157

In the following, a different molecule is considered.
[in] Requested read-out: clearance. Entry: `COc1ccc2c(c1)C=C1Cn3c-2c(C2CCCCC2)c2ccc(cc23)C(=O)NS(=O)(=O)N(C)CCCCCNC1=O`
[out] 70

* * *

This section presents compounds with their documented clearance values.
Experiment: Clearance in Sprague-Dawley rat at 2 mg/kg, iv and 10 mg/kg, po
Format: ADME, organism-based
Conditions: in vivo
Quick reminder: number only, in mL/min/kg, skip the unit.

Illustrative cases are given below, each with its answer.
>>> value("COc1ccc2c(c1)C[C@@H]1Cn3c-2c(C2CCCCC2)c2ccc(cc23)C(=O)NS(=O)(=O)N(C)CCOCCN(C)C1=O")
53.3
>>> value("COc1ccc2c(c1)C=C1Cn3c-2c(C2CCCCC2)c2ccc(cc23)C(=O)NS(=O)(=O)N(C)CCCCN(C)C1=O")
40
>>> value("COc1ccc2c(c1)C1C[C@]13Cn1c-2c(C2CCCCC2)c2ccc(cc21)C(=O)NS(=O)(=O)N(C)CCOCCN(C)C3=O (some centres undefined)")
86.7

In the following, a different compound is considered.
[in] Requested read-out: clearance. Entry: COc1ccc2c(c1)C=C1Cn3c-2c(C2CCCCC2)c2ccc(cc23)C(=O)NS(=O)(=O)N(C)CCOCCN(C)C1=O [TMC-647055]
[out] 53.3

* * *

Test: Cmax in dog at 10 mg/kg, po
Format: ADME, organism-based, Canis lupus familiaris
Set-up: dose 10 mg/kg, route oral
Conditions: in vivo
property name: Cmax (µM)
Quick reminder: number only, in µM, skip the unit.

[in] Requested read-out: Cmax. Entry: `COc1ccc2c(c1)C=C1Cn3c-2c(C2CCCCC2)c2ccc(cc23)C(=O)NS(=O)(=O)N(C)CCOCCN(C)C1=O`
[out] 10.2

* * *

Experiment: Metabolic stability in rat liver microsomes assessed as compound metabolized at 5 uM after 15 mins
Type: ADME, Microsome
Conditions: read-out: Drug metabolism
property name: metabolised at 0.25 h, 5 µM (%)
Quick reminder: number only, in %, skip the unit.

[in] Requested read-out: metabolised at 0.25 h, 5 µM. Entry: `COc1ccc2c(c1)C=C1Cn3c-2c(C2CCCCC2)c2ccc(cc23)C(=O)NS(=O)(=O)N(C)CCCCN(C)C1=O`
[out] 26

[in] Request: `COc1ccc2c(c1)C=C1Cn3c-2c(C2CCCCC2)c2ccc(cc23)C(=O)NS(=O)(=O)N2CCN(CCNC1=O)CC2`
[out] 16

[in] Request: `CN1CCCCN(C)S(=O)(=O)NC(=O)c2ccc3c(C4CCCCC4)c4n(c3c2)CC(=Cc2ccc(Cl)cc2-4)C1=O`
[out] 30

[in] Request: `COc1ccc2c(c1)C=C1Cn3c-2c(C2CCCCC2)c2ccc(cc23)C(=O)NS(=O)(=O)N(C)CCCCNC1=O`
[out] 13

[in] Request: `COc1ccc2c(c1)C=C1Cn3c-2c(C2CCCCC2)c2ccc(cc23)C(=O)NS(=O)(=O)N(C)CCCCCCN(C)C1=O`
[out] 46

* * *

Assay: Drug uptake in Sprague-Dawley rat liver at 10 mg/kg, po measured after 7 hrs
Format: ADME, organism-based
Design: dose 10 mg/kg, route oral
Conditions: read-out: Drug uptake
property name: concentration at 7 h (ng/mL)
Quick reminder: number only, in ng/mL, skip the unit.

>>> value("COc1ccc2c(c1)C=C1Cn3c-2c(C2CCCCC2)c2ccc(cc23)C(=O)NS(=O)(=O)N(C)CCCCN(C)C1=O")
5000
>>> value("COc1ccc2c(c1)C1C[C@]13Cn1c-2c(C2CCCCC2)c2ccc(cc21)C(=O)NS(=O)(=O)N(C)CCOCCN(C)C3=O (stereo partly drawn)")
3200
>>> value("COc1ccc2c(c1)C=C1Cn3c-2c(C2CCCCC2)c2ccc(cc23)C(=O)NS(=O)(=O)N(C)CCN2CCN(CC2)C1=O")
299
>>> value("COc1ccc2c(c1)C=C1Cn3c-2c(C2CCCCC2)c2ccc(cc23)C(=O)NS(=O)(=O)N(C)CCCCCNC1=O")
6320
>>> value("COc1ccc2c(c1)C=C1Cn3c-2c(C2CCCCC2)c2ccc(cc23)C(=O)NS(=O)(=O)N(C)CCOCCN(C)C1=O")
7800

[in] Requested read-out: concentration at 7 h. Entry: `CN1CCOCCN(C)S(=O)(=O)NC(=O)c2ccc3c(C4CCCCC4)c4n(c3c2)CC(=Cc2cc(F)ccc2-4)C1=O`
[out] 6560

[in] Request: `COc1ccc2c(c1)C[C@@H]1Cn3c-2c(C2CCCCC2)c2ccc(cc23)C(=O)NS(=O)(=O)N(C)CCOCCN(C)C1=O`
[out] 898

[in] Request: `CN1CCOCCN(C)S(=O)(=O)NC(=O)c2ccc3c(C4CCCCC4)c(n(C)c3c2)-c2ccccc2OCC1=O`
[out] 1720

* * *

This section presents molecules with their documented bioavailability values.
Experiment: Oral bioavailability in Sprague-Dawley rat at 10 mg/kg
Assay type: ADME, organism-based
Conditions: in vivo
Quick reminder: number only, in %, skip the unit.

>>> value("COc1ccc2c(c1)C=C1Cn3c-2c(C2CCCCC2)c2ccc(cc23)C(=O)NS(=O)(=O)N(C)CCN2CCN(CC2)C1=O")
3
>>> value("CN1CCOCCN(C)S(=O)(=O)NC(=O)c2ccc3c(C4CCCCC4)c4n(c3c2)CC(=Cc2cc(F)ccc2-4)C1=O")
52
>>> value("COc1ccc2c(c1)C[C@@H]1Cn3c-2c(C2CCCCC2)c2ccc(cc23)C(=O)NS(=O)(=O)N(C)CCOCCN(C)C1=O")
15
>>> value("COc1ccc2c(c1)C1C[C@]13Cn1c-2c(C2CCCCC2)c2ccc(cc21)C(=O)NS(=O)(=O)N(C)CCOCCN(C)C3=O (stereo partly drawn)")
51
>>> value("CN1CCOCCN(C)S(=O)(=O)NC(=O)c2ccc3c(C4CCCCC4)c(n(C)c3c2)-c2ccccc2OCC1=O")
21

[in] Requested read-out: bioavailability. Entry: `COc1ccc2c(c1)C=C1Cn3c-2c(C2CCCCC2)c2ccc(cc23)C(=O)NS(=O)(=O)N(C)CCCCN(C)C1=O`
[out] 76

[in] Request: `COc1ccc2c(c1)C=C1Cn3c-2c(C2CCCCC2)c2ccc(cc23)C(=O)NS(=O)(=O)N(C)CCCCCNC1=O`
[out] 6

* * *

Experiment: Oral bioavailability in dog at 10 mg/kg
Format: ADME, organism-based, Canis lupus familiaris
Conditions: in vivo
property name: bioavailability (%)
Quick reminder: number only, in %, skip the unit.

[in] Requested read-out: bioavailability. Entry: `COc1ccc2c(c1)C=C1Cn3c-2c(C2CCCCC2)c2ccc(cc23)C(=O)NS(=O)(=O)N(C)CCOCCN(C)C1=O`
[out] 87

* * *

Assay: Ratio of drug uptake in Sprague-Dawley rat liver to plasma at 10 mg/kg, po measured after 7 hrs
Format: ADME, organism-based
Parameters: dose 10 mg/kg, route oral
This section presents compounds with their documented Kp at 7 h values.
Respond with the number and no other words.

>>> value("CN1CCOCCN(C)S(=O)(=O)NC(=O)c2ccc3c(C4CCCCC4)c4n(c3c2)CC(=Cc2cc(F)ccc2-4)C1=O")
62
>>> value("CN1CCOCCN(C)S(=O)(=O)NC(=O)c2ccc3c(C4CCCCC4)c(n(C)c3c2)-c2ccccc2OCC1=O")
64
>>> value("COc1ccc2c(c1)C=C1Cn3c-2c(C2CCCCC2)c2ccc(cc23)C(=O)NS(=O)(=O)N(C)CCCCCNC1=O")
341
>>> value("COc1ccc2c(c1)C=C1Cn3c-2c(C2CCCCC2)c2ccc(cc23)C(=O)NS(=O)(=O)N(C)CCCCN(C)C1=O")
23
>>> value("COc1ccc2c(c1)C=C1Cn3c-2c(C2CCCCC2)c2ccc(cc23)C(=O)NS(=O)(=O)N(C)CCN2CCN(CC2)C1=O")
108

[in] Requested read-out: Kp at 7 h. Entry: COc1ccc2c(c1)C1C[C@]13Cn1c-2c(C2CCCCC2)c2ccc(cc21)C(=O)NS(=O)(=O)N(C)CCOCCN(C)C3=O (stereo partly drawn)
[out] 38

[in] Request: `COc1ccc2c(c1)C=C1Cn3c-2c(C2CCCCC2)c2ccc(cc23)C(=O)NS(=O)(=O)N(C)CCOCCN(C)C1=O`
[out] 46

[in] Request: `COc1ccc2c(c1)C[C@@H]1Cn3c-2c(C2CCCCC2)c2ccc(cc23)C(=O)NS(=O)(=O)N(C)CCOCCN(C)C1=O`
[out] 22

Origin of values: ChEMBL document CHEMBL2040770
